test: self-splicing fitness, log relative to wild type (ln ratio); higher = more splicing; Tetrahymena group I intron in knt gene, E. coli kanamycin selection, DiMSum; sequences stand for … in CUCUCU…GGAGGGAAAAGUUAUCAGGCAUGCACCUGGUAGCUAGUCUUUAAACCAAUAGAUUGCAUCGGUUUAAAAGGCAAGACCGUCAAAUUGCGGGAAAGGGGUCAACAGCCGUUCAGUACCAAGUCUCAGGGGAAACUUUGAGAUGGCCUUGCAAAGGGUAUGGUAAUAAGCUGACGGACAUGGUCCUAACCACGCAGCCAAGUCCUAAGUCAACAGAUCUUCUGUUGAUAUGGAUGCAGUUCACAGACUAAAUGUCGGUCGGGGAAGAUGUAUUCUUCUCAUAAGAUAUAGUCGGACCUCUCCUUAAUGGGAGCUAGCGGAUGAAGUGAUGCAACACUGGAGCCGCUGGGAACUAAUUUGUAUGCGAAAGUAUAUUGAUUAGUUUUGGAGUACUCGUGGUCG; settings: 37 °C;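 further: selection with 25 µg/mL kanamycin versus none on LB agar overnight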
Record form. Attribute: self-splicing fitness (ln). Fill in for each entry.

In: Give a short answer stating reported self-splicing fitness (ln) for `AGGUAGCAAUAUUACGAGAU` .
Out: -1.91

In: Give a short answer stating reported self-splicing fitness (ln) for `AGCGAGCAAUAUUACGUGAU` .
Out: -3.09

In: Give a short answer stating reported self-splicing fitness (ln) for `AUACAGCAAUAUUACGACGG` .
Out: -0.835

In: Give a short answer stating reported self-splicing fitness (ln) for `UGAUAGCAAUAUUACGAUCG` .
Out: -0.942

In: Give a short answer stating reported self-splicing fitness (ln) for `CGCAAGCAAUAUUACGAGAA` .
Out: -2.03

In: Give a short answer stating reported self-splicing fitness (ln) for `UUGUAGCAAUAUUACGCUGG` .
Out: -1.77

In: Give a short answer stating reported self-splicing fitness (ln) for `GAGAAGCAAUAUUACGAUUA` .
Out: 0.245

In: Give a short answer stating reported self-splicing fitness (ln) for `GAUAAGCAAUAUUACGUUCA` .
Out: -0.316

In: Give a short answer stating reported self-splicing fitness (ln) for `CUGCAGCAAUAUUACGCGGG` .
Out: -1.65

In: Give a short answer stating reported self-splicing fitness (ln) for `GGAAAGCAAUAUUACGCACA` .
Out: 0.0226

In: Give a short answer stating reported self-splicing fitness (ln) for `GAUUAGCAAUAUUACGAUGA` .
Out: 0.00201

In: Give a short answer stating reported self-splicing fitness (ln) for `ACUAAGCAAUAUUACGACGC` .
Out: -0.0244

In: Give a short answer stating reported self-splicing fitness (ln) for `CAGAAGCAAUAUUACGCGUA` .
Out: -1.69

In: Give a short answer stating reported self-splicing fitness (ln) for `GAAAAGCAAUAUUACGUAUA` .
Out: -0.833

In: Give a short answer stating reported self-splicing fitness (ln) for `GGACAGCAAUAUUACGCUAA` .
Out: -0.339

In: Give a short answer stating reported self-splicing fitness (ln) for `GCUUAGCAAUAUUACGAGGA` .
Out: -0.781

In: Give a short answer stating reported self-splicing fitness (ln) for `UCGCAGCAAUAUUACGCAAG` .
Out: -1.69

In: Give a short answer stating reported self-splicing fitness (ln) for `CAUGAGCAAUAUUACGCUAG` .
Out: -2.82

In: Give a short answer stating reported self-splicing fitness (ln) for `GCGGAGCAAUAUUACGAACA` .
Out: -2.78

In: Give a short answer stating reported self-splicing fitness (ln) for `UGUCAGCAAUAUUACGGGGG` .
Out: -1.64

In: Give a short answer stating reported self-splicing fitness (ln) for `ACGGAGCAAUAUUACGUCGA` .
Out: -2.07

In: Give a short answer stating reported self-splicing fitness (ln) for `UACGAGCAAUAUUACGCUAA` .
Out: -2.85

The values you see were collected from the supplement of paper PMC7877785.
